MEASURE_NAME: melting point

>  <MOLECULE>
O=C1Nc2ccc(Cl)cc2C(OCC2CC2)(C(F)(F)F)CN1C1CC1 (stereo not given)

>  <REPORTED>
154 to 155 °C

$$$$

Ask | Requested read-out: melting point. Entry: COCC1(C)OC(=O)N(c2cc(Cl)cc(Cl)c2)C1=O (stereo not given)
Reply | 108 to 111 °C

Ask | Requested read-out: melting point. Entry: CCOC(=O)C=Cc1ccc(OC)c(-c2cc3c(cc2OCCCCCC(=O)OC(C)(C)C)C(C)(C)CCC3(C)C)c1
Reply | 130 to 132 °C

Ask | Requested read-out: melting point. Entry: COc1ccc(Br)c(-n2c(=O)[nH]c(=O)n(C)c2=O)c1
Reply | 185 to 187 °C

Ask | Requested read-out: melting point. Entry: COc1nc2ccccc2c2c1ncn2CC(C)C
Reply | 111 to 114 °C

Ask | Requested read-out: melting point. Entry: Oc1nsnc1-c1c(Cl)cccc1Cl
Reply | 194 to 195 °C

====

MEASURE_NAME: melting point

Worked set:
>  <SMILES_INPUT>
COc1ccc(C(=O)NCCc2cccc(C)c2)cc1OC

>  <REPORTED>
108 to 109 °C

$$$$
>  <SMILES_INPUT>
Cc1ccc(-n2nc(C#N)cc2-c2ccc(S(C)(=O)=O)cc2)cc1F

>  <REPORTED>
167 to 168 °C

$$$$
>  <SMILES_INPUT>
CCNS(=O)(=O)c1ccc(N2N=C(C)C(=CNc3ccccc3OCC)C2=O)cc1

>  <REPORTED>
238 °C

$$$$

Ask | Requested read-out: melting point. Entry: COc1cc(C(=O)O)ccc1Cn1cc(/C=C/C(=O)N(C)C)c2ccc(/C=C/C(=O)N(C)C)cc21
Reply | 270 to 272 °C

Ask | Requested read-out: melting point. Entry: CCc1nc2c(C)cc(C)nc2n1-c1ccc(CCNC(=O)NS(=O)(=O)c2cc3ccccc3s2)cc1
Reply | 128 to 130 °C

====

Measured melting point values are reported for all entries that follow.

Worked set:
>  <MOLECULE>
COc1cc(Nc2c(C#N)cnc3cc(-c4ccc(Cn5ccnn5)cc4)ccc23)c(Cl)cc1Cl

>  <MEASURE_NAME>
melting point

>  <REPORTED>
239 to 240 °C

$$$$
>  <MOLECULE>
CC(=O)C1CCC2C3CCC4CC(C)(O)CCC4(C)C3CCC12C (centres undefined)

>  <MEASURE_NAME>
melting point

>  <REPORTED>
103 °C

$$$$
>  <MOLECULE>
CN(CC(=O)Nc1ccc2[nH]ncc2c1)Cc1ccccc1

>  <MEASURE_NAME>
melting point

>  <REPORTED>
159 to 160 °C

$$$$
>  <MOLECULE>
O=[N+]([O-])c1cc(F)cc2c1OCCC2

>  <MEASURE_NAME>
melting point

>  <REPORTED>
48 to 50 °C

$$$$
>  <MOLECULE>
COC(=O)C=C(Nc1cc(CCO)c([N+](=O)[O-])cc1OCc1ccccc1)C(F)(F)F

>  <MEASURE_NAME>
melting point

>  <REPORTED>
72 to 74 °C

$$$$
>  <MOLECULE>
CC(C)n1nc(-c2cc(NC(=O)c3ccccc3)cnc2-c2ccccc2)ccc1=O

>  <MEASURE_NAME>
melting point

>  <REPORTED>
207 to 208 °C

$$$$
>  <MOLECULE>
COC(=O)Nc1cc(Cl)nc(N)n1

>  <MEASURE_NAME>
melting point

>  <REPORTED>
225 to 226 °C

$$$$
>  <MOLECULE>
CCOC(=O)c1cnc2ccn(-c3ccccc3)n2c1=O

>  <MEASURE_NAME>
melting point

>  <REPORTED>
187 to 190 °C

$$$$
>  <MOLECULE>
CCCc1nn(Cc2ccc(OCc3nc(-c4ccccc4)oc3C)cc2)cc1CCC(=O)O

>  <MEASURE_NAME>
melting point

>  <REPORTED>
153 to 154 °C

$$$$
>  <MOLECULE>
Cc1ccc(CN2CCN(C(=O)OC(C)(C)C)CC2)cc1

>  <MEASURE_NAME>
melting point

>  <REPORTED>
61 to 62 °C

$$$$

Ask | Requested read-out: melting point. Entry: CN1c2ccc(C=C(c3ccccc3)c3ccccc3)cc2Sc2cc(C=C(c3ccccc3)c3ccccc3)ccc21
Reply | 233 to 241 °C

Ask | Requested read-out: melting point. Entry: CC(Oc1ccccc1C(C)C)C(=O)OC1CC(O)C=C2C=CC(C)C(CCC3CC(O)CC(=O)O3)C21 (mixture of isomers)
Reply | 138 to 141 °C

Ask | Requested read-out: melting point. Entry: Cc1ccccc1C=CCC(CCC(=O)O)(C(=O)C=Cc1ccc(Cl)cc1)c1ccccc1 (centres undefined)
Reply | 60 to 80 °C

Ask | Requested read-out: melting point. Entry: O=C(NCC1CC1)c1c(NC(=O)c2cc(C(F)(F)F)nn2-c2ncccc2Cl)c(Cl)cc2cn[nH]c12
Reply | > 250 °C

Ask | Requested read-out: melting point. Entry: Cc1cc2c(cc1-n1c(C)ccc1C)OC(=O)C2C (centres undefined)
Reply | 94 to 95 °C

Ask | Requested read-out: melting point. Entry: COc1cc(OC)c(C2C=CCO2)cc1C=CC(=O)c1ccc(S(N)(=O)=O)cc1 (centres undefined)
Reply | 194 to 195 °C

Ask | Requested read-out: melting point. Entry: COC(=O)c1ccccc1S(=O)(=O)NC(=O)Nc1nc(OC)cc(OC(F)(F)F)n1
Reply | 141 to 143 °C

Ask | Requested read-out: melting point. Entry: Nc1cn(C2CCN(c3c(F)cc4c(=O)c(C(=O)O)cn(C5CC5)c4c3F)C2)nn1 (centres undefined)
Reply | 221 °C

Ask | Requested read-out: melting point. Entry: CSc1cn(C)c2c(-c3ccccc3)csc2c1=O
Reply | 204 to 206 °C

Ask | Requested read-out: melting point. Entry: O=c1[nH]c2cccc3c2n1CCC(NCCO)C3O (centres undefined)
Reply | 220 °C

Ask | Requested read-out: melting point. Entry: Cn1ncc(C(=O)N2CCOCC2)c1C(=O)Nc1ccn2nc(-c3ccccc3)nc2c1
Reply | 203 to 207 °C

Ask | Requested read-out: melting point. Entry: COc1nc(-n2ncc(C#N)c2N)c(Cl)cc1C(F)(F)F
Reply | 135 to 139 °C

Ask | Requested read-out: melting point. Entry: COC(=O)C(C)(C)N1CCC(N(Cc2ccc(-c3ccc(C(F)(F)F)cc3)cc2)C(=O)Cn2c(CCc3cccc(F)c3F)nc(=O)c3cccnc32)CC1
Reply | 150 °C

Ask | Requested read-out: melting point. Entry: COc1cc(CCCC2OCCO2)ccc1OCc1nc(-c2ccccc2)oc1C
Reply | 74 to 75 °C

Ask | Requested read-out: melting point. Entry: O=C(O)c1ccc2c(c1)S(=O)(=O)c1ccc(Cl)cc1C2=O
Reply | 352 to 355 °C
